- Test system: Cupriavidus metallidurans AE104
- Construct: AE104
- PROCEDURE_TEXT: microbe, parasite or virus in culture
- Set-up: growth inhibition of bacterial culture by metal chelators
- ASSAY_CONDITIONS: read-out: DIP
- From the text: EDTA, membrane-permeant TPEN, and DIP complex divalent transition metal cations with similar stability constants, EDTA with Cu > Ni > Zn > Co > Fe = Mn, TPEN with a similar ranking but higher stability constants, and DIP with Cu = Fe > Zn in an inverted arrangement ([43][–][45]). […] Due to large deviations, not much influence of TPEN on the growth of the ∆folE mutants could be measured. […]
RECORDED_METRIC: pIC50
Conceptually, pIC50 converts a concentration in mol/L into minus its log10.

(Q) Look up pIC50 of `c1ccc(-c2ccccn2)nc1` and report it.
(A) 4.24

Reference for the values: paper PMC10882993
